Molecular target: human JAK3 (a.a. 781-1124) (Homo sapiens, UniProt P52333)
Construct: JAK3 (a.a. 781-1124); His tag (N); made in house; host or cells: insect cells (baculovirus)
Sequence (P52333 781-1124): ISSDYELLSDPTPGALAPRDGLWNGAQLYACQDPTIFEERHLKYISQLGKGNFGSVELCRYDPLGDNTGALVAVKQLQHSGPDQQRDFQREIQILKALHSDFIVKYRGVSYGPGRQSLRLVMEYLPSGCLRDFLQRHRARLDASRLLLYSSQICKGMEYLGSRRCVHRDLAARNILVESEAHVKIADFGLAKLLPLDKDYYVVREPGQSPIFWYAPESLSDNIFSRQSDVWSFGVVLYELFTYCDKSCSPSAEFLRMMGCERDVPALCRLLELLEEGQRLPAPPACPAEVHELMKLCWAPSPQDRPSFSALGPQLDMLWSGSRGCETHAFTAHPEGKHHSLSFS
Test: In vitro JAK kinase assay (HTRF, phosphorylation of a biotinylated peptide), JAK3
Format: biochemical
Conditions: method AA1 (3 μM ATP) or AA2 (1000 μM ATP), not stated per value
Counter-ions that a name gives are not always drawn.
property label: IC50 (nM)

[1] Clc1cnc2nc1Nc1cccc(c1)CCc1cccc(c1)N2 [Example A2, trifluoroacetate]
[2] O=C(CCC1CCNCC1)Nc1ccc2cc1CCc1cccc(c1)Nc1ncc(Cl)c(n1)N2 [Example A116, bis(trifluoroacetate)]
[3] Clc1cnc2nc1Nc1cccc(c1)/C=C\c1cccc(c1)N2 [Example A1, trifluoroacetate]
## Task Rank the 3 compounds shown above by IC50, smallest number first. Answer format: the labels, in the requested order.
## Result 3, 1, 2
